Reference for the values: patent US5468756A

Kindly state MLD (Minimum Lethal Dose) p.o. for each of the entries shown.
test system: ddY strain male mice; experiment: Acute toxicity (Minimum Lethal Dose); type: in vivo; conditions: p.o.

Query: MLD (Minimum Lethal Dose) p.o.; subject: "CC(C)n1cnc2c3cccnc3n(-c3ccccc3)c(=O)c21"
> 100 mg/kg

How about this compound: "CCCn1cnc2c3cccnc3n(-c3ccccc3)c(=O)c21"
> 100 mg/kg

// same read-out, input: "CCOC(=O)Cn1cnc2c3cccnc3n(-c3ccccc3)c(=O)c21"
> 300 mg/kg

And the next one, "O=C(O)Cn1cnc2c3cccnc3n(-c3ccccc3)c(=O)c21" ?
> 300 mg/kg

Next record, please: "CCOCCn1cnc2c3cccnc3n(-c3ccccc3)c(=O)c21"
> 300 mg/kg

###

tested on: ddY strain male mice; test: Acute toxicity (Minimum Lethal Dose); type: in vivo; conditions: p.o.
Recorded Metric: MLD (Minimum Lethal Dose) p.o.

Query MLD (Minimum Lethal Dose) p.o. on ddY strain male mice for "O=c1c2c(ncn2Cc2ccccc2)c2cccnc2n1-c1cccc(Cl)c1"
> 300 mg/kg

What about this molecule? "O=c1c2c(ncn2CCc2ccccc2)c2cccnc2n1-c1ccccc1"
> 300 mg/kg

Param item: "O=c1c2c(ncn2Cc2ccccc2)c2cccnc2n1-c1ccccc1"
> 300 mg/kg

// next record "Cn1cnc2c(=O)n(-c3ccccc3)c3ncccc3c21"
> 300 mg/kg

Same again, this time with "C=CCn1cnc2c3cccnc3n(-c3ccccc3)c(=O)c21"
> 300 mg/kg

Also check "CCn1cnc2c3cccnc3n(-c3ccccc3)c(=O)c21"
> 50 mg/kg

###

Test system: ddY strain male mice
Assay: Acute toxicity (Minimum Lethal Dose)
Type: in vivo
Details: i.p.
Experimental: The test compound was orally and intraperitoneally administered to ddY strain male mice weighing 20 to 25 g. MLD (Minimum Lethal Dose) was determined by observing the mortality for […] after the administration.
Where a name gives a salt, the structure may show the parent alone.
For each entry below, report its MLD (Minimum Lethal Dose) i.p. value.

Given O=c1c2c(ncn2Cc2cccc([N+](=O)[O-])c2)c2cccnc2n1-c1ccccc1 [Compound 47] , state its recorded MLD (Minimum Lethal Dose) i.p..
> 100 mg/kg

Queued: CCN(CC)CCCn1cnc2c3cccnc3n(-c3ccccc3)c(=O)c21 [Compound 67 Sa, hydrochloride]
> 100 mg/kg

Another compound to look at: CCCCCCn1cnc2c3cccnc3n(-c3ccccc3)c(=O)c21 [Compound 30]
> 100 mg/kg

Repeat for the following compound: CC(c1ccccc1)n1cnc2c3cccnc3n(-c3ccccc3)c(=O)c21 (stereo not drawn) [Compound 16]
> 100 mg/kg

Again, but for O=c1c2c(ncn2CCCN2CCOCC2)c2cccnc2n1-c1ccccc1 [Compound 66 Sa, hydrochloride]
> 100 mg/kg

Thanks! And O=c1c2c(ncn2Cc2ccc(F)cc2)c2cccnc2n1-c1ccccc1 [Compound 44] ?
> 50 mg/kg

Record: CCOCCn1cnc2c3cccnc3n(-c3ccccc3)c(=O)c21 [Compound 31]
> 100 mg/kg

Do the same for Cn1cnc2c3cccnc3n(-c3ccccc3)c(=O)c21 [Compound 4] please
> 50 mg/kg

Can you check CC(=O)OCCn1cnc2c3cccnc3n(-c3ccccc3)c(=O)c21 [Compound 34] next?
> 100 mg/kg

###

test system: carrageenin-induced paw edema; assay: Effect on carrageenin-induced paw edema; format: in vivo, male Wistar rats; conditions: Rattus norvegicus; p.o., 3 hours after carrageenin; read-out: Suppression rate for paw swelling, carrageenin-induced edema
What inhibition in vivo at 100 mg/kg was measured for each of the following?
I only need the number, in %, no unit after it.

Lab request: please report inhibition in vivo at 100 mg/kg under test system carrageenin-induced paw edema for CCCCn1c(=O)c2ncn(C)c2c2cccnc21 [Compound 1]
40.1

What do you have for CC(C)Cn1cnc2c3cccnc3n(-c3ccccc3)c(=O)c21 [Compound 12] ?
48.5

Please give the result for O=c1c2c(ncn2Cc2ccc(F)cc2)c2cccnc2n1-c1ccccc1 [Compound 44] too.
42.8

And the next one, Cc1cccc(Cn2cnc3c4cccnc4n(-c4ccccc4)c(=O)c32)c1 [Compound 41] ?
47.7

Can you check O=c1c2[nH]c(S)nc2c2cccnc2n1-c1ccccc1 [Compound 20] next?
6.8

Query CCCCCCn1cnc2c3cccnc3n(-c3ccccc3)c(=O)c21 [Compound 30] next
48.5

What do we get for O=c1c2c(ncn2Cc2ccc(Cl)cc2)c2cccnc2n1-c1ccccc1 [Compound 40] ?
21.3

Param item: O=c1c2[nH]c(-c3ccccc3)nc2c2cccnc2n1-c1ccccc1 [Compound 19]
1.7

Next compound up: CC(C)n1cnc2c3cccnc3n(-c3ccccc3)c(=O)c21 [Compound 10]
43.1
